Test: Calculated diameter of emulsified droplet to form a 10 μm vesicle (ideal gas law)
Type: physicochemical
Conditions: Table 2
Description: As noted above, compositions employed herein may also include, with respect to their preparation, formation and use, gaseous precursors that can be activated to change from a liquid or solid state into a gas by temperature, pH, light, and energy (such as ultrasound). […] Thus, for stabilization of the precursor in the liquid state in a mixture wherein the precursor droplet is spherical, the volume of the precursor droplet may be determined by the equation: Volume (spherical vesicle)=4/3 πr^3 where […]
assay-readout: Diameter (μm) of emulsified droplet to make 10 micron vesicle
Numbers only, in μm.

Some compounds with known Diameter (μm) of emulsified droplet to make 10 micron vesicle results, for comparison:
| compound | observed-result |
| --- | --- |
| C#CC(C)C [3-methyl-1-butyne] | 2.5 |
| FC(F)(F)C(F)(F)C(F)(F)C(F)(F)F [decafluoro butane, perfluorobutane] | 3.0 |
| CC=C(C)C [2-methyl-2-butene] | 2.5 |
| FC1(F)C(F)(F)C(F)(F)C1(F)F [octafluoro cyclobutane, octafluorocyclobutane] | 2.8 |
| C#CC(=C)C [1-butene-3-yne-2-methyl] | 2.4 |
| FC(F)(F)C(F)(F)F [hexafluoro ethane] | 2.7 |
| CCCCF [1-fluorobutane] | 1.2 |
| FC(F)(F)C(F)(F)C(F)(F)C(F)(F)C(F)(F)F [perfluoro pentane, perfluoropentane] | 2.9 |

Recorded Diameter (μm) of emulsified droplet to make 10 micron vesicle (compound CCC(C)C [2-methyl butane (isopentane), 2-methyl butane] ): 2.6
